TARGET OF ASSAY: HCV Core 134-171-TT peptide (ALRZ-9 peptide) (HCV-1)
MEASUREMENT PROTOCOL: SPR, captured mAb;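 also: Anti-HCV Core mAbs from hybridoma supernatants held on a rabbit anti-mouse IgG CM5 surface, peptide flowed over 3 min then 4 min dissociation, duplicate concentrations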
pKd: −log10 of the molar value.
Recorded pKd values for a group of binders are listed next.
ENDPOINT: pKd

1) HCV 208A-983 (antibody, V domains shown) VH: QGQMQQSGAELVKPGASVKLSCKTSGFTFSSSYFSWLKQKPGQSLEWIAWIYAGTGNTIYNQKFTDKAQLTVDTASSTAFMQLSSLTIEDSAIYYCAISGTGFTYWGQGTLVTVSA VL: DVLMTQTPLSLPVNLGDQASISCRSSQSLLHSNGNTYLEWFLQKPGQSPKLLIYNVSNRFSGVPDRFSGSGSGTDFTLKISRVEAEDLGVYYCFQGSHVPFTFGSGTKLAIKR    9.34
2) HCV 208A-293 (antibody, V domains shown) VH: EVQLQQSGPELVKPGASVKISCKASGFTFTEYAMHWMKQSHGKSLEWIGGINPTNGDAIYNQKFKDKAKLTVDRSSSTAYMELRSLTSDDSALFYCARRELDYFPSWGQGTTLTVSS VL: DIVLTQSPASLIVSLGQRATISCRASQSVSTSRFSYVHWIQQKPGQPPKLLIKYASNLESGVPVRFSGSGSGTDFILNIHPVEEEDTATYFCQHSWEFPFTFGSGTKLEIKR    9.96
3) HCV 208A-1064 (antibody, V domains shown) VH: EVQLQQSGPELVKPGASVKISCKTSGYTFTEYAMHWMKQSHGKSLEWIGGINPTNGDTIYNQKFKDKAKLTVDRSSSTAYMELRSLTSDDSALFYCARRELDYFASWGQGTTLTVSS VL: DIVLTQSPASLIVSLGQTATISCRASQSVSTSRFSYLHWIQQKPGQPPKLLIKYASNLESGVPVRFSGSGSGTDFTLNIHPVEEEDTATYFCQHSWEFPFTFGSGTKLKIKR    9.68

Measured values drawn from patent US9371374 for this set.
